src = ChEMBL document CHEMBL1909046

- tested.system: Melanocortin receptor 4 (Homo sapiens, UniProt P32245); further: in other assays of this panel Not Active means under 50% inhibition at 10 µM
- Sequence (P32245 whole entry): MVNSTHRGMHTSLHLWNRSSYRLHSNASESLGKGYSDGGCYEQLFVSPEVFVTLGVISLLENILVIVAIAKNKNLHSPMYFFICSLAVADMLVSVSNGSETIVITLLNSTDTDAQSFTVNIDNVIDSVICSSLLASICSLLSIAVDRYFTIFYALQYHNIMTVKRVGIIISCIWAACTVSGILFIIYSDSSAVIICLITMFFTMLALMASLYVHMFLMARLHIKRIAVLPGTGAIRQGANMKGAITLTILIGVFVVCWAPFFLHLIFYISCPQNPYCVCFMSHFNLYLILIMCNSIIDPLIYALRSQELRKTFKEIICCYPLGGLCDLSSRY
- Type: cell membranes, HEK293, Membrane
- assay.context: hek293

{"columns": ["substance", "IC50"],
 "data": [
  ["LEAD (II) ACETATE", "Not Active"],
  ["LIPOPOLYSACCHARIDE E. COLI O55:B5", "Not Active"],
  ["CADMIUM ACETATE", "Not Active"],
  ["SODIUM NITROPRUSSIDE", "Not Active"]
]}

* * *

- tested.system: Glucocorticoid receptor (Homo sapiens); further: in other assays of this panel Not Active means under 50% inhibition at 10 µM
- Sequence (P04150 whole entry): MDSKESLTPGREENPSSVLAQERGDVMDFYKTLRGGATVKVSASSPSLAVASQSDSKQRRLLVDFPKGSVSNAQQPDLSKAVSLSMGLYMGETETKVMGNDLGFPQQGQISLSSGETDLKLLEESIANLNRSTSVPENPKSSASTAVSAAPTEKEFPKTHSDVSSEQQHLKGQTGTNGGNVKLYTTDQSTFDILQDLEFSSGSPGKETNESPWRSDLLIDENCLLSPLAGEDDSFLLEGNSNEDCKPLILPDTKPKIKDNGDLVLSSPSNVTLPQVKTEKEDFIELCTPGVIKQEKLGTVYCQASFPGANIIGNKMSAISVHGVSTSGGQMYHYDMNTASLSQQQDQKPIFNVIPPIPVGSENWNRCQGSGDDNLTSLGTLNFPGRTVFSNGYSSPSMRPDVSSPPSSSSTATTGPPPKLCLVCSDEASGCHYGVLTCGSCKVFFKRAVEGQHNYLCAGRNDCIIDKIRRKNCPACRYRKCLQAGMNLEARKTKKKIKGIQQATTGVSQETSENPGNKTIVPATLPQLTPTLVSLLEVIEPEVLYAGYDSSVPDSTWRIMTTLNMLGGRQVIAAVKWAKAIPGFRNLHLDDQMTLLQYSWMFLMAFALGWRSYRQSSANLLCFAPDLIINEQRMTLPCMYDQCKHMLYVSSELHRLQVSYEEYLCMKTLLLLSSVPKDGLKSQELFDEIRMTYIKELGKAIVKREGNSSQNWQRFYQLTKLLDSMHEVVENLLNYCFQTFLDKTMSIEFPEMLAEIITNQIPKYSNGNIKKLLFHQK
- assay.context: hela s3
experimental.endpoint: IC50

{"columns": ["substance", "tested.system", "experimental.endpoint", "observed.measurement"],
 "data": [
  ["LEAD (II) ACETATE", "Glucocorticoid receptor (Homo sapiens)", "IC50", "Not Active"],
  ["SODIUM NITROPRUSSIDE", "Glucocorticoid receptor (Homo sapiens)", "IC50", "Not Active"],
  ["LIPOPOLYSACCHARIDE E. COLI O55:B5", "Glucocorticoid receptor (Homo sapiens)", "IC50", "Not Active"],
  ["CADMIUM ACETATE", "Glucocorticoid receptor (Homo sapiens)", "IC50", "Not Active"]
]}
